System: MDA-MB-468 cells
test-description: MTT cytotoxicity assay in MDA-MB-468 cells
Assay type: cell-based
cond: single agent; MTT, 24 h; SNI analogs 5 μM, doxorubicin 5 μM, cisplatin 20 μM
Cell viability inhibition (%) (Single agent) MDA-MB-468 values for the compounds below.
assay-readout: Cell viability inhibition (%) (Single agent) MDA-MB-468

Cc1ccc(-n2nnnc2SCC(=O)c2ccc(O)c(O)c2)cc1 [SNI-1]	10
NS(=O)(=O)c1ccc(-n2nnnc2SCC(=O)c2ccc(O)c(O)c2)cc1 [GL-252]	18
Cc1ccc(-n2nnnc2SCC(=O)c2ccc(N3CCOCC3)cc2)cc1 [GL-269]	37
O=C(CSc1nc(-c2ccccc2)cs1)c1ccc(O)c(O)c1 [GL-216]	10

###

Tested on: HCC-1937 cells
cond: human, 24 h, 5 μM
Cell viability inhibition (%) Single-agent HCC-1937 values for the compounds below.
assay-readout: Cell viability inhibition (%) Single-agent HCC-1937

Cc1ccc(-n2nnnc2SCC(=O)c2ccc(O)c(O)c2)cc1 [SNI-1]	11%
Cc1ccc(-n2nnnc2SCC(=O)c2ccc(N3CCOCC3)cc2)cc1 [GL-269]	~10%
NS(=O)(=O)c1ccc(-n2nnnc2SCC(=O)c2ccc(O)c(O)c2)cc1 [GL-252]	~10%
NS(=O)(=O)c1ccc(-n2nnnc2SCC(=O)c2ccc(N3CCOCC3)cc2)cc1 [GL-343]	~1%
O=C(CSc1nnnn1-c1ccc(Cl)cc1Cl)c1ccc(O)c(O)c1 [GL-341]	~6%
O=C(CSc1nnnn1-c1ccc([N+](=O)[O-])cc1)c1ccc(O)c(O)c1 [GL-342]	~21%

###

Cell viability inhibition (%) Single-agent MDA-MB-231 values for the compounds below.
System: MDA-MB-231 cells
test-description: MTT cytotoxicity assay in MDA-MB-231 cells
Type: cell-based
cond: single agent; SNI analogs 5 μM, doxorubicin 5 μM
assay-readout: Cell viability inhibition (%) Single-agent MDA-MB-231

NS(=O)(=O)c1ccc(-n2nnnc2SCC(=O)c2ccc(N3CCOCC3)cc2)cc1	~36%
Cc1ccc(-n2nnnc2SCC(=O)c2ccc(O)c(O)c2)cc1	~8%
O=C(CSc1nnnn1-c1ccc(Cl)cc1Cl)c1ccc(O)c(O)c1	~21%
O=C(CSc1nnnn1-c1ccc([N+](=O)[O-])cc1)c1ccc(O)c(O)c1	~23%

###

Cell viability inhibition (%) (Single agent) MDA-MB-468 values for the molecules below.
Tested on: MDA-MB-468 cells
test-description: MTT cytotoxicity assay in MDA-MB-468 cells
Format: cell-based
cond: single agent; MTT, 24 h; SNI analogs 5 μM, doxorubicin 5 μM, cisplatin 20 μM
assay-readout: Cell viability inhibition (%) (Single agent) MDA-MB-468

O=C(CSc1nnnn1-c1ccc(Cl)cc1Cl)c1ccc(O)c(O)c1 [GL-341]	~3%
O=C(CSc1nnnn1-c1ccc([N+](=O)[O-])cc1)c1ccc(O)c(O)c1 [GL-342]	~22.27%
NS(=O)(=O)c1ccc(-n2nnnc2SCC(=O)c2ccc(N3CCOCC3)cc2)cc1 [GL-343]	~2%

Origin of values: patent US20250257058A1
